- Tested on: THP-1 cells
- assay-comment: Cell viability assay (MTT)
- Assay type: cell-based
- measurement-parameters: compound 5 μM alone, 18 h, normalized to DMSO as 100%
test-readout: MTT Compound alone % Viability (%)

* Cc1ccc(C)c(-c2csc(N(C)C(=O)c3ccc(S(=O)(=O)N4CCCCC4)cc3)n2)c1 [Compound 34c] | 97.43
* CCCN(CCC)S(=O)(=O)c1ccc(C(=O)Nc2nc(-c3cc(C)ccc3C)cs2)cc1 [Compound 58b] | 83.69
* Cc1cccc(-c2csc(NC(=O)c3ccc(S(=O)(=O)N4CCCCC4)cc3)n2)c1 [Compound 12c] | 96.06
* CCCC#Cc1sc(NC(=O)c2ccc(S(=O)(=O)N3CCCCC3)cc2)nc1-c1cc(C)ccc1C [Compound 18q] | 105.84
* CC(C)(C)Cc1csc(NC(=O)c2ccc(S(=O)(=O)N3CCCCC3)cc2)n1 [Compound 12j] | 125.52
* Cc1ccc(C)c(-c2nc(NC(=O)c3ccc(S(=O)(=O)N4CCCCC4)cc3)sc2-c2ccco2)c1 [Compound 18j] | 107.56
* Cc1ccc(C)c(-c2nc(NC(=O)c3ccc(S(=O)(=O)N4CCCCC4)cc3)sc2Br)c1 [Compound 18n] | 84.46
* CCc1sc(NC(=O)c2ccc(S(=O)(=O)N3CCCCC3)cc2)nc1-c1cc(C)ccc1C [Compound 18r] | 103.66
* C#CCNS(=O)(=O)c1ccc(C(=O)Nc2nc(-c3cc(C)ccc3C)cs2)cc1 [Compound 72a] | 87.46
* CCSc1sc(NC(=O)c2ccc(S(=O)(=O)N3CCCCC3)cc2)nc1-c1cc(C)ccc1C [Compound 18k] | 111.74
* Cc1ccc(C)c(-c2ccc(NC(=O)c3ccc(S(=O)(=O)N4CCCCC4)cc3)cn2)c1 [Compound 18d] | 95.35
* CCCCCc1sc(NC(=O)c2ccc(S(=O)(=O)N3CCCCC3)cc2)nc1-c1cc(C)ccc1C [Compound 18t] | 110.37
* Cc1ccc(C)c(-c2cccc(NC(=O)c3ccc(S(=O)(=O)N4CCCCC4)cc3)n2)c1 [Compound 18b] | 93.89
* CCCC#Cc1sc(NC(=O)c2ccc(S(=O)(=O)N3CCCCC3)cc2)nc1-c1cc(C)ccc1Br [Compound 64] | 101.42
* Cc1ccc2c(c1)-c1nc(NC(=O)c3ccc(S(=O)(=O)N4CCCCC4)cc3)sc1CC2 [Compound 12s] | 102.16
* C#CCN(CC)S(=O)(=O)c1ccc(C(=O)Nc2nc(-c3cc(C)ccc3C)cs2)cc1 [Compound 72b] | 81.42

====

- System: NF-κB
- assay-comment: cell-based NF-κB FRET assay
- measurement-parameters: compound + LPS; two point normalized, compound 1 as 200%, LPS (10 ng/mL) as 100%
Reported NF-κB FRET Compound + LPS % Activation is given for each of the following molecules.
test-readout: NF-κB FRET Compound + LPS % Activation (%)

• Cc1ccc(C)c(-c2csc(NC(=O)c3ccc(S(=O)(=O)C4CCCCC4)cc3)n2)c1 [Compound 49b] = 136.43
• CCCCCc1sc(NC(=O)c2ccc(S(=O)(=O)N3CCCCC3)cc2)nc1-c1cc(C)ccc1C [Compound 18t] = 213.25
• Cc1ccc(C)c(-c2csc(NC(=O)c3ccc(S(=O)(=O)N4CCC5(CC4)N=N5)cc3)n2)c1 [Compound 72e] = 168.82
• Cc1ccc(Br)cc1-c1csc(NC(=O)c2ccc(S(=O)(=O)N3CCCCC3)cc2)n1 [Compound 12e] = 189.97
• CCc1csc(NC(=O)c2ccc(S(=O)(=O)N3CCCCC3)cc2)n1 [Compound 12h] = 108.38
• Cc1ccc(C)c(-c2csc(NCc3ccc(S(=O)(=O)N4CCCCC4)cc3)n2)c1 [Compound 34a] = 106.53
• Cc1ccc(C)c(-c2csc(N(C)C(=O)c3ccc(S(=O)(=O)N4CCCCC4)cc3)n2)c1 [Compound 34c] = 143.05
• Cc1ccc2c(c1)-c1nc(NC(=O)c3ccc(S(=O)(=O)N4CCCCC4)cc3)sc1CC2 [Compound 12s] = 159.62

Origin of measurements: patent US12091393B2
